# tested-system: human LPA1 (Homo sapiens, UniProt Q92633)
# Construct: expressed in transfected cells; host or cells: CHO-K1
# Sequence (Q92633 whole entry): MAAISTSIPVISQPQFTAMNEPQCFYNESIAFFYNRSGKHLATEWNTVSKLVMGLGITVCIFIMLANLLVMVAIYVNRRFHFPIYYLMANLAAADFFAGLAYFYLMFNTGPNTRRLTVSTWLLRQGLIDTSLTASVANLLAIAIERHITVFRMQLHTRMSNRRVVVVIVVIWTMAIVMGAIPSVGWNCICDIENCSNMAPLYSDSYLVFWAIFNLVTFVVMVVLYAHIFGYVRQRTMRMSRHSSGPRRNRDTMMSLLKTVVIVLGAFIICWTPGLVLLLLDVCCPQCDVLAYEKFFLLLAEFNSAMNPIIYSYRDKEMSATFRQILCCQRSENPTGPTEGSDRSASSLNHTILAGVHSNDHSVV
# protocol: In vitro LPA1 functional antagonist assay (calcium mobilization, FLIPR)
# Type: cell-based
# test-settings: CHO-K1 cells overexpressing human LPA1; Oleoyl LPA challenge; calcium mobilization on FLIPR Tetra
readout-name: IC50 (nM)

In the examples that follow, each entry is paired with its recorded IC50.
>>> recorded_number("CCOc1cc([C@@H](O)[C@H](Cn2cc3cccc(C(=O)O)c3n2)OC2CCCC2)ccc1C")
193
>>> recorded_number("COc1cc([C@@H](O)[C@H](Cc2nc(CC(=O)O)cs2)OCC2CCC2)cc(OC)c1C [Compound 122a]")
1450

[a] COc1cc([C@@H](O)[C@H](Cc2ccc(CC(=O)O)c(OC)n2)OCCc2ccccc2)cc(OC)c1C [Compound 130a]
[b] COc1cc([C@@H](O)[C@H](Cc2nc(CC(=O)O)cs2)OC2Cc3ccccc3C2)cc(OC)c1C [Compound 129a]
[in] Which item exceeds the other in IC50, a or b ? When you have decided, please share the label of that item.
[out] a
(a: 1190 nM, b: 3.38 nM)

----------
# tested-system: human LPA1 (Homo sapiens, UniProt Q92633)
# Construct: expressed in transfected cells; host or cells: CHO-K1
# protocol: In vitro LPA1 calcium flux antagonist assay, Bioduro protocol
# Assay type: cell-based
# test-settings: CHO-K1 cells overexpressing human LPA1 and G15a; LPA challenge at EC80; calcium mobilization on FLIPR Tetra; read-out: IC50 (nM) in Assay B2
Let's look at some molecules and their measured IC50.

Use these answered entries as a reference point.
>>> result("COc1cc([C@@H](O)[C@H](Cn2nnc3c(C(=O)O)cccc32)OC2CCCC2)cc(OC)c1C")
"≥ 10000 nM"
>>> result("COc1cc([C@@H](O)[C@H](Cc2nc3c(C(=O)O)cccn3n2)OC2CCCC2)cc(OC)c1C")
"> 10000 nM"

[in] Suppose we examine the molecule COc1cc([C@@H](O)[C@H](Cn2cc3cccc(-c4nc(=O)o[nH]4)c3n2)OC2CCCC2)cc(OC)c1C ; what IC50 value has been reported?
[out] > 10000 nM

----------
# tested-system: human LPA1 (Homo sapiens)
# Construct: expressed in transfected cells; host or cells: CHO-K1
# protocol: In vitro LPA1 calcium flux antagonist assay, Bioduro protocol
# Format: cell-based
# test-settings: CHO-K1 cells overexpressing human LPA1 and G15a; LPA challenge at EC80; calcium mobilization on FLIPR Tetra; read-out: IC50 (nM) in Assay B2
# Experimental: In Vitro LPA1 Calcium Flux Antagonist Assay Bioduro Protocol CHO-K1 cells overexpressing human LPA1 and G15a were seeded at a total volume of 20 uL (15000 cells/well) into Matrigel pre-coated 384-well plates (coming -3764) and incubated at 37° C. After overnight incubation, the cells were serum starved for 4 h. […] Calcium mobilization was measured on a FLIPR Tetra (MDS). […] Percentage inhibition is calculated using the following formula: […]
readout-name: IC50 (nM)

In the examples that follow, each entry is paired with its recorded IC50.
>>> recorded_number("COc1cc([C@@H](O)[C@H](Cn2cc3cc(C(F)(F)F)cc(C(=O)O)c3n2)OC2CCCC2)cc(OC)c1C")
4.23
>>> recorded_number("COc1cc([C@@H](O)[C@H](Cn2cc3c(F)ccc(C(=O)O)c3n2)OC2CCCC2)cc(OC)c1C")
5.42
>>> recorded_number("CCCc1sc(C[C@H](OC2CCCC2)[C@H](O)c2cc(OC)c(C(C)=O)c(OC)c2)nc1C(C)C(=O)O (some centres unmarked)")
71.6
>>> recorded_number("COc1cc([C@@H](O)C(Cc2nc(CC(=O)O)c(C(=O)O)s2)OC2CCCC2)cc(OC)c1C (some centres unmarked)")
2120
>>> recorded_number("CCCc1sc(C[C@H](OC2CCCC2)[C@H](O)c2cc(OC)c(C)c(OC)c2)nc1[C@H](C)C(=O)O")
28
>>> recorded_number("COc1cc([C@@H](O)[C@H](Cc2nc3c(C(=O)O)cc(F)cc3s2)OCC(C)C)cc(OC)c1C")
15.8

[1] COc1cc([C@@H](O)[C@H](Cc2nc3c(C(=O)O)cc(C(F)(F)F)cc3s2)OC2CCCC2)cc(OC)c1C
[2] Cc1ccc([C@@H](O)[C@H](Cn2cc3cc(C#N)cc(C(=O)O)c3n2)OC2CCCC2)cc1OC(F)(F)F
[in] I would appreciate it if you could say which entry, 1 or 2 , has the lower IC50 value. Record your answer as the label of the chosen record.
[out] 1
